Tested on: Influenza B virus
Assay: Antiviral activity against Influenza B virus (B/Hong Kong/05/1972) […] infected in MDCK cells assessed as inhibition of virus-induced cytopathic effect
Type: functional, cell-based
Details: B/Hong Kong/05/1972, MDCK
Please go through the items and note down their EC50.

{"columns": ["molecule", "EC50"],
 "data": [
  ["CC(=O)N[C@H]1[C@H](O[C@@H]2c3ccc(c(Cl)c3)Oc3cc4cc(c3O)Oc3ccc(cc3Cl)C[C@H]3NC(=O)[C@H](n5cc6ccccc6c5Sc5nc6ccccc6s5)c5ccc(O)c(c5)Oc5cc(O)cc(c5)[C@H](NC3=O)C(=O)N[C@H]4C(=O)N[C@H]3C(=O)N[C@@H]2C(=O)N[C@H](C(=O)O)c2cc(O)cc(O)c2-c2cc3ccc2O)O[C@H](CO)[C@@H](O)[C@@H]1O", "> 100 µM"],
  ["CC(=O)N[C@H]1[C@H](O[C@@H]2c3ccc(c(Cl)c3)Oc3cc4cc(c3O)Oc3ccc(cc3Cl)C[C@H]3NC(=O)[C@H](n5cc6cc7ccccc7cc6c5Sc5nc6ccccc6s5)c5ccc(O)c(c5)Oc5cc(O)cc(c5)[C@H](NC3=O)C(=O)N[C@H]4C(=O)N[C@H]3C(=O)N[C@@H]2C(=O)N[C@H](C(=O)O)c2cc(O)cc(O)c2-c2cc3ccc2O)O[C@H](CO)[C@@H](O)[C@@H]1O", "> 100 µM"]
]}

Below is a list of molecules. For each, state its recorded EC50.
1. CC(=O)N[C@H]1[C@H](O[C@@H]2c3ccc(c(Cl)c3)Oc3cc4cc(c3O)Oc3ccc(cc3Cl)C[C@H]3NC(=O)[C@H](n5cc6cc7ccccc7cc6c5Sc5ccccc5)c5ccc(O)c(c5)Oc5cc(O)cc(c5)[C@H](NC3=O)C(=O)N[C@H]4C(=O)N[C@H]3C(=O)N[C@@H]2C(=O)N[C@H](C(=O)O)c2cc(O)cc(O)c2-c2cc3ccc2O)O[C@H](CO)[C@@H](O)[C@@H]1O
2. CC(=O)N[C@H]1[C@H](O[C@@H]2c3ccc(c(Cl)c3)Oc3cc4cc(c3O)Oc3ccc(cc3Cl)C[C@H]3NC(=O)[C@H](n5cc6ccccc6c5S[C@@H]5O[C@H](COC(C)=O)[C@@H](OC(C)=O)[C@H](OC(C)=O)[C@H]5OC(C)=O)c5ccc(O)c(c5)Oc5cc(O)cc(c5)[C@H](NC3=O)C(=O)N[C@H]4C(=O)N[C@H]3C(=O)N[C@@H]2C(=O)N[C@H](C(=O)O)c2cc(O)cc(O)c2-c2cc3ccc2O)O[C@H](CO)[C@@H](O)[C@@H]1O
3. CC(N)C12CC3CC(CC(C3)C1)C2 (configuration not stated) [RIMANTADINE]

stdout:
> 100 µM
> 100 µM
> 500 µM

Below is a list of molecules. For each, state its recorded EC50.
1. CC(=O)N[C@@H]1[C@@H](OC(C)=O)[C@H](OC(C)=O)[C@@H](COC(C)=O)O[C@H]1Sc1c2ccccc2cn1[C@H]1C(=O)N[C@@H]2Cc3ccc(c(Cl)c3)Oc3cc4cc(c3O)Oc3ccc(cc3Cl)[C@@H](O[C@@H]3O[C@H](CO)[C@@H](O)[C@H](O)[C@H]3NC(C)=O)[C@@H]3NC(=O)[C@H](NC(=O)[C@@H]4NC(=O)[C@@H](NC2=O)c2cc(O)cc(c2)Oc2cc1ccc2O)c1ccc(O)c(c1)-c1c(O)cc(O)cc1[C@@H](C(=O)O)NC3=O
2. NC(=O)c1ncn([C@@H]2O[C@H](CO)[C@@H](O)[C@H]2O)n1 [RIBAVIRIN]

stdout:
> 100 µM
4.6 µM

----------
Tested on: Influenza B virus
Assay: Antiviral activity against Influenza B virus (B/Hong Kong/05/1972) […] infected in MDCK cells assessed as inhibition of virus-induced cytopathic effect
Assay type: functional, cell-based
Conditions: B/Hong Kong/05/1972, MDCK
Please go through the items and note down their EC50.

{"columns": ["query_smiles", "target_under_test", "EC50"],
 "data": [
  ["CC(=O)N[C@H]1[C@H](O[C@@H]2c3ccc(c(Cl)c3)Oc3cc4cc(c3O)Oc3ccc(cc3Cl)C[C@H]3NC(=O)[C@H](n5cc6ccccc6c5S[C@@H]5O[C@H](CO)[C@@H](O)[C@H](O)[C@H]5O)c5ccc(O)c(c5)Oc5cc(O)cc(c5)[C@H](NC3=O)C(=O)N[C@H]4C(=O)N[C@H]3C(=O)N[C@@H]2C(=O)N[C@H](C(=O)O)c2cc(O)cc(O)c2-c2cc3ccc2O)O[C@H](CO)[C@@H](O)[C@@H]1O", "Influenza B virus", "> 100 µM"],
  ["NC12CC3CC(CC(C3)C1)C2", "Influenza B virus", "> 500 µM"],
  ["CC(=O)N[C@H]1[C@H](O[C@@H]2c3ccc(c(Cl)c3)Oc3cc4cc(c3O)Oc3ccc(cc3Cl)C[C@H]3NC(=O)[C@H](n5cc6cc7ccccc7cc6c5Sc5ncccn5)c5ccc(O)c(c5)Oc5cc(O)cc(c5)[C@H](NC3=O)C(=O)N[C@H]4C(=O)N[C@H]3C(=O)N[C@@H]2C(=O)N[C@H](C(=O)O)c2cc(O)cc(O)c2-c2cc3ccc2O)O[C@H](CO)[C@@H](O)[C@@H]1O", "Influenza B virus", "> 50 µM"],
  ["CC(=O)N[C@H]1[C@H](O[C@@H]2c3ccc(c(Cl)c3)Oc3cc4cc(c3O)Oc3ccc(cc3Cl)C[C@H]3NC(=O)[C@H](N)c5ccc(O)c(c5)Oc5cc(O)cc(c5)[C@H](NC3=O)C(=O)N[C@H]4C(=O)N[C@H]3C(=O)N[C@@H]2C(=O)N[C@H](C(=O)O)c2cc(O)cc(O)c2-c2cc3ccc2O)O[C@H](CO)[C@@H](O)[C@@H]1O", "Influenza B virus", "> 100 µM"]
]}

Next compound, please.
stdin: Entry under review: CC(=O)N[C@H]1[C@H](O[C@@H]2c3ccc(c(Cl)c3)Oc3cc4cc(c3O)Oc3ccc(cc3Cl)C[C@H]3NC(=O)[C@H](n5cc6ccccc6c5Sc5ncccn5)c5ccc(O)c(c5)Oc5cc(O)cc(c5)[C@H](NC3=O)C(=O)N[C@H]4C(=O)N[C@H]3C(=O)N[C@@H]2C(=O)N[C@H](C(=O)O)c2cc(O)cc(O)c2-c2cc3ccc2O)O[C@H](CO)[C@@H](O)[C@@H]1O . Reported EC50?
stdout: > 100 µM

----------
Assay: Toxicity in MDCK cells assessed as induction of cell morphology changes
Format: cell-based, Canis lupus familiaris
Conditions: dog
readout: MCC (µM)
Answers are plain numbers, in µM.

stdin: Entry under review: CC(=O)N[C@@H]1[C@@H](OC(C)=O)[C@H](OC(C)=O)[C@@H](COC(C)=O)O[C@H]1Sc1c2ccccc2cn1[C@H]1C(=O)N[C@@H]2Cc3ccc(c(Cl)c3)Oc3cc4cc(c3O)Oc3ccc(cc3Cl)[C@@H](O[C@@H]3O[C@H](CO)[C@@H](O)[C@H](O)[C@H]3NC(C)=O)[C@@H]3NC(=O)[C@H](NC(=O)[C@@H]4NC(=O)[C@@H](NC2=O)c2cc(O)cc(c2)Oc2cc1ccc2O)c1ccc(O)c(c1)-c1c(O)cc(O)cc1[C@@H](C(=O)O)NC3=O . Reported MCC?
stdout: 20

----------
Tested on: Vaccinia virus
Experiment: Antiviral activity against Vaccinia virus infected in HEL cells assessed as inhibition of virus-induced cytopathic effect
Assay type: functional, organism-based
Conditions: Orthopoxvirus vaccinia
readout: EC50

stdin: Entry under review: CC(=O)N[C@H]1[C@H](O[C@@H]2c3ccc(c(Cl)c3)Oc3cc4cc(c3O)Oc3ccc(cc3Cl)C[C@H]3NC(=O)[C@H](n5cc6cc7ccccc7cc6c5Sc5nc6ccccc6s5)c5ccc(O)c(c5)Oc5cc(O)cc(c5)[C@H](NC3=O)C(=O)N[C@H]4C(=O)N[C@H]3C(=O)N[C@@H]2C(=O)N[C@H](C(=O)O)c2cc(O)cc(O)c2-c2cc3ccc2O)O[C@H](CO)[C@@H](O)[C@@H]1O . Reported EC50?
stdout: > 100 µM

----------
Please go through the items and note down their EC50.
Test system: Influenza B virus
Experiment: Antiviral activity against Influenza B virus (B/Hong Kong/05/1972) […] infected in MDCK cells assessed as inhibition of virus-induced cytopathic effect
Assay type: functional, cell-based
Details: B/Hong Kong/05/1972, MDCK

Use the examples below as a reference point.
{"columns": ["query_smiles", "EC50"],
 "data": [
  ["CC(=O)N[C@H]1[C@H]([C@H](O)[C@H](O)CO)OC(C(=O)O)=C[C@@H]1NC(=N)N", "23 µM"],
  ["CC(=O)N[C@H]1[C@H](O[C@@H]2c3ccc(c(Cl)c3)Oc3cc4cc(c3O)Oc3ccc(cc3Cl)C[C@H]3NC(=O)[C@H](n5cc6ccccc6c5Sc5ccccc5)c5ccc(O)c(c5)Oc5cc(O)cc(c5)[C@H](NC3=O)C(=O)N[C@H]4C(=O)N[C@H]3C(=O)N[C@@H]2C(=O)N[C@H](C(=O)O)c2cc(O)cc(O)c2-c2cc3ccc2O)O[C@H](CO)[C@@H](O)[C@@H]1O", "> 100 µM"]
]}

Next compound, please.
stdin: Entry under review: CC(=O)N[C@@H]1[C@@H](O)[C@H](O)[C@@H](CO)O[C@H]1Sc1c2ccccc2cn1[C@H]1C(=O)N[C@@H]2Cc3ccc(c(Cl)c3)Oc3cc4cc(c3O)Oc3ccc(cc3Cl)[C@@H](O[C@@H]3O[C@H](CO)[C@@H](O)[C@H](O)[C@H]3NC(C)=O)[C@@H]3NC(=O)[C@H](NC(=O)[C@@H]4NC(=O)[C@@H](NC2=O)c2cc(O)cc(c2)Oc2cc1ccc2O)c1ccc(O)c(c1)-c1c(O)cc(O)cc1[C@@H](C(=O)O)NC3=O . Reported EC50?
stdout: > 100 µM

Values compiled from ChEMBL document CHEMBL2203009.
